Catalogue of compounds with associated % inhibition ApPOL 90'
molecular target: P. falciparum apicoplast DNA polymerase (Pf-apPOL) (Plasmodium falciparum); assay: Fluorescence-based high-throughput DNA polymerase assay (molecular beacon), primary screen and dose-response; format: biochemical; conditions: DRC-2; 90'; concentration 20;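 also: test concentration in µM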
Sequence (Q8ILY1 entry or part of it): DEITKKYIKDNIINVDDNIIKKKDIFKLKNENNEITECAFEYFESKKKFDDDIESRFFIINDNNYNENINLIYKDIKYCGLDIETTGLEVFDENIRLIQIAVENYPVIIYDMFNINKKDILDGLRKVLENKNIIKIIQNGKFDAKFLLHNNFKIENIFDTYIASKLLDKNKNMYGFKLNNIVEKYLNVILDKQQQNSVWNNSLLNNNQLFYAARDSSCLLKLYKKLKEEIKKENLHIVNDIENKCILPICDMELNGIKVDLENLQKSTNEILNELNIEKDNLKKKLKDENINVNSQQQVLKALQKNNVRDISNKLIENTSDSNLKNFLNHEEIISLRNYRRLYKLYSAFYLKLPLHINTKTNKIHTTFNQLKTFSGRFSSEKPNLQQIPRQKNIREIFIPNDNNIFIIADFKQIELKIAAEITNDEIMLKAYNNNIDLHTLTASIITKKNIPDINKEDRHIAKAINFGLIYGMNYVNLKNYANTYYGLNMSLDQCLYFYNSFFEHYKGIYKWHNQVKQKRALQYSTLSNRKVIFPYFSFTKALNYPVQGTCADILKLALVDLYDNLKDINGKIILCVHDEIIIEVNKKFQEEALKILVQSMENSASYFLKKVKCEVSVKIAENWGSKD
readout-label: % inhibition ApPOL 90'

INSERT INTO assay_data (compound, observed_measurement) VALUES
  ('Cc1nc(/N=N/c2ccc(C(=O)[O-])cc2)c(COP(=O)([O-])[O-])c(C=O)c1O.[Na+].[Na+].[Na+] [KU0261395]', '53%'),
  ('CCCN1COc2ccc3c(=O)c(-c4ccccc4)coc3c2C1 [KU0199556]', '39%'),
  ('O=C(Nc1c2c(nn1-c1ccc(Oc3ccccc3)cc1)CSC2)c1ccco1 [KU0055927]', '66%'),
  ('CN(C)C1C(c2ccccc2)=C(c2ccccc2)SC(c2ccccc2)C1[N+](=O)[O-] (stereo not shown) [KU0268387]', '53%');

---

biological target: P. falciparum apicoplast DNA polymerase (Pf-apPOL) (Plasmodium falciparum); experiment: Fluorescence-based high-throughput DNA polymerase assay (molecular beacon), primary screen and dose-response; assay type: biochemical; conditions: DRC-2; 90'; concentration 20;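 also: test concentration in µM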
readout-label: % inhibition ApPOL 90' (%)

INSERT INTO assay_data (molecule, tested_system, readout_label, unit_symbol, observed_measurement) VALUES
  ('O=C(CSc1nnc(-c2ccncc2)[nH]1)c1ccc(O)c(O)c1 [Molecule 89]', 'P. falciparum apicoplast DNA polymerase (Pf-apPOL) (Plasmodium falciparum)', '% inhibition ApPOL 90''', '%', 73),
  ('Cc1cc(C)c(O)c(/N=C/c2cc([N+](=O)[O-])cc(Br)c2O)c1 [KU0046272]', 'P. falciparum apicoplast DNA polymerase (Pf-apPOL) (Plasmodium falciparum)', '% inhibition ApPOL 90''', '%', 20),
  ('O=C(CSc1nc2ccccc2s1)Nc1ncc([N+](=O)[O-])s1 [KU0019667]', 'P. falciparum apicoplast DNA polymerase (Pf-apPOL) (Plasmodium falciparum)', '% inhibition ApPOL 90''', '%', -23),
  ('CC(=O)Nc1cc(C(=O)NC(C)C)c2ccc(C)nc2c1 [KU0206312]', 'P. falciparum apicoplast DNA polymerase (Pf-apPOL) (Plasmodium falciparum)', '% inhibition ApPOL 90''', '%', 50),
  ('COc1ccc2c(c1)C(c1ccccc1OC)CC(=O)O2 (centres unmarked) [Molecule 38, COc1ccc2c(c1)C(CC(=O)O2)c1ccccc1OC]', 'P. falciparum apicoplast DNA polymerase (Pf-apPOL) (Plasmodium falciparum)', '% inhibition ApPOL 90''', '%', 53),
  ('O=C(NC(C(Cl)Cl)S(=O)(=O)c1ccccc1)c1ccccc1 (centres unmarked) [KU0045239]', 'P. falciparum apicoplast DNA polymerase (Pf-apPOL) (Plasmodium falciparum)', '% inhibition ApPOL 90''', '%', 68),
  ('O=C(Cn1ccc2c(=O)[nH]ccc21)Nc1cccc(Cl)c1 [Molecule 23, O=C(Cn1ccc2c1cc[nH]c2=O)Nc1cccc(c1)Cl]', 'P. falciparum apicoplast DNA polymerase (Pf-apPOL) (Plasmodium falciparum)', '% inhibition ApPOL 90''', '%', 69),
  ('CCCCC(=O)N1CCc2c(nc3cc(-c4ccccc4Cl)[nH]n3c2=O)C1 [Molecule 37]', 'P. falciparum apicoplast DNA polymerase (Pf-apPOL) (Plasmodium falciparum)', '% inhibition ApPOL 90''', '%', 35);
